# assay_explanation: qHTS assay to identify small molecule antagonists of the estrogen related receptor signaling pathway with the pleiotropic PPARgamma coactivator (PGC) from Tox21 10K library (AID 1224841); further: actives are mostly falling curves and most rising ones were filed inactive; nearly all actives have a fitted effect of over 50% in size
# assay_setup: PGC/ERR reporter cell line, ONE-Glo luciferase, 18 h; series mostly up to 92.4 µM
Results filed as inconclusive are left out. Active and inactive are the calls of the source. How the calls were made is not given here.
outcome_measure: outcome

Sample answers from the record:
>>> print(df.to_string())
                                   molecule  data_value
0  Cc1cn([C@H]2C[C@H](N=[N+]=[N-])[C@@H](CO)O2)c(=O)[nH]c1=O    inactive
1  O=C(C1CCCCC1)N1CC(=O)N2CCc3ccccc3C2C1 (stereo not drawn)    inactive
2        OC(Cn1cncn1)(Cn1cncn1)c1ccc(F)cc1F    inactive
3                            O=C(O)CCC(=O)O    inactive
4                            NC(=O)c1cnccn1    inactive
5                  Cc1cc(=O)n(-c2ccccc2)n1C    inactive
6            Oc1ccc(/C=C/c2cc(O)cc(O)c2)cc1    inactive
7  CCCCC(CC)COC(=O)/C=C/c1ccc(OC)cc1 (stereo not drawn)    inactive

Batch of 5 molecules: report outcome for each.
1. CC(=O)OCC(COC(C)=O)OC(C)=O
2. NS(=O)(=O)c1cc(C(=O)O)c(NCc2ccco2)cc1Cl
3. Nc1ccc(O)c(C(=O)O)c1
4. CCCN(CCC)S(=O)(=O)c1ccc(C(=O)O)cc1
5. CC(O)CO (stereo not drawn)

OUTPUT:
inactive
inactive
inactive
inactive
inactive

Data provenance: PubChem BioAssay (Tox21)
